FYI, the data here is from ChEMBL document CHEMBL1123882.

- Test system: P388
- test-summary: Average increase in life span of treated animals over control groups of tumor-bearing untreated animals when given at optimal dose (in vivo)
- Assay type: functional, Mus musculus
parameter: ILS max

{"columns": ["smiles", "target-entity", "result"],
 "data": [
  ["COc1cc(C(=O)NCCN(C)C)c2nc3ccccc3nc2c1", "P388", 22],
  ["Cc1cccc2nc3cccc(C(=O)NCCN(C)C)c3nc12", "P388", 45],
  ["CCN(CC)CCNC(=O)c1cccc2nc3ccccc3nc12", "P388", 43],
  ["Cc1ccc2nc3c(C(=O)NCCN(C)C)cccc3nc2c1", "P388", 29],
  ["Cc1ccc(C(=O)NCCN(C)C)c2nc3ccccc3nc12", "P388", 28],
  ["CN(C)CCNC(=O)c1cccc2c1nc1ccccc1[n+]2[O-]", "P388", 81]
]}

###

- test-summary: Lipophilicity (HPLC)
- Format: physicochemical
parameter: Rm

{"columns": ["smiles", "numeric-value"],
 "data": [
  ["CN(C)CCNC(=O)c1cccc2nc3ccccc3nc12", -0.29],
  ["COc1ccc2nc3ccccc3nc2c1C(=O)NCCN(C)C", -0.5],
  ["CN(C)CCNC(=O)c1cccc2nc3ccc(Cl)cc3nc12", -0.2],
  ["COc1cc(C(=O)NCCN(C)C)c2nc3ccccc3nc2c1", -0.25],
  ["Cc1ccc2nc3c(C(=O)NCCN(C)C)cccc3nc2c1", -0.18],
  ["COc1ccc(C(=O)NCCN(C)C)c2nc3ccccc3nc12", -0.41],
  ["CN(C)CCNC(=O)c1cc(Cl)cc2nc3ccccc3nc12", -0.06],
  ["CN(C)CCNC(=O)c1cccc2nc3c(Cl)cccc3nc12", -0.18],
  ["CN(C)CCNC(=O)c1c(Cl)ccc2nc3ccccc3nc12", -0.27],
  ["COc1ccc2nc3c(C(=O)NCCN(C)C)cccc3nc2c1", -0.27],
  ["CN(C)CCNC(=O)c1cccc2nc3cccc(Cl)c3nc12", -0.37],
  ["O=C(NCCNCCO)c1cccc2nc3ccccc3nc12", -0.32],
  ["CN(C)CCCNC(=O)c1cccc2nc3ccccc3nc12", -0.21],
  ["CN(C)CCNC(=O)c1cccc2nc3cc(Cl)ccc3nc12", -0.13],
  ["Cc1ccc2nc3cccc(C(=O)NCCN(C)C)c3nc2c1", -0.2],
  ["COc1cccc2nc3c(C(=O)NCCN(C)C)cccc3nc12", -0.44],
  ["Cc1cccc2nc3cccc(C(=O)NCCN(C)C)c3nc12", -0.23]
]}

###

- test-summary: Lipophilicity (HPLC)
- Type: physicochemical
parameter: Rm

{"columns": ["smiles", "parameter", "result"],
 "data": [
  ["CN(C)CCNC(=O)c1cccc2nc3ccc4ccccc4c3nc12", "Rm", -0.05],
  ["Cc1cccc2nc3c(C(=O)NCCN(C)C)cccc3nc12", "Rm", -0.01],
  ["Cc1cc(C(=O)NCCN(C)C)c2nc3ccccc3nc2c1", "Rm", -0.15],
  ["CCN(CC)CCNC(=O)c1cccc2nc3ccccc3nc12", "Rm", 0.09],
  ["COc1ccc2nc3cccc(C(=O)NCCN(C)C)c3nc2c1", "Rm", -0.33],
  ["CN(C)CCNC(=O)c1cc2ccccc2c2nc3ccccc3nc12", "Rm", 0.11],
  ["COc1cccc2nc3cccc(C(=O)NCCN(C)C)c3nc12", "Rm", -0.42],
  ["CN(C)CCNC(=O)c1cccc2c1nc1ccccc1[n+]2[O-]", "Rm", -0.58],
  ["CN(C)CCNC(=O)c1cccc2nc3c(ccc4ccccc43)nc12", "Rm", -0.32],
  ["Cc1ccc(C(=O)NCCN(C)C)c2nc3ccccc3nc12", "Rm", 0.08],
  ["O=C(NCCN1CCOCC1)c1cccc2nc3ccccc3nc12", "Rm", -0.21],
  ["CN(C)CCCCNC(=O)c1cccc2nc3ccccc3nc12", "Rm", -0.11]
]}
